Test system: Candida albicans
Conditions: 32 ug/mL
Description: Antifungal activity against Candida albicans ATCC 90028 (CO-ADD:FG_001); MIC in YNB media using NBS plates, by OD630
Measured potencies and affinities stand elsewhere.
experimentalReadout: Inhibition (%)
Numbers only, in %.

Worked cases, answers included:
[[record]]
smilesrepresentation = "CCc1ccc(Nc2nc(N)c(-c3nc4ccccc4c(=O)n3-c3ccccc3)s2)cc1"
measvalue = 6

[[record]]
smilesrepresentation = "Nc1nc(Nc2ccccc2)sc1-c1nc2ccccc2c(=O)n1-c1ccccc1"
measvalue = 6.03

[[record]]
smilesrepresentation = "N#Cc1ccccc1-c1ccc(Cn2c(-c3cscn3)nc3cc(Cl)ccc32)cc1"
measvalue = -1.51

[[record]]
smilesrepresentation = "Clc1ccc2c(c1)nc(-c1cscn1)n2Cc1ccccc1"
measvalue = 1.89

[[record]]
smilesrepresentation = "Fc1cc(Cn2c(-c3cscn3)nc3c(Cl)cccc32)cc(C(F)(F)F)c1"
measvalue = 3.24

[[record]]
smilesrepresentation = "Nc1nc(Nc2ccc(Cl)cc2)sc1-c1nc2ccccc2c(=O)n1-c1ccccc1"
measvalue = 3.78

[[record]]
smilesrepresentation = "N=C(Nc1ccccc1)c1cscn1"
measvalue = 6.13

[[record]]
smilesrepresentation = "Cn1c(-c2cscn2)nc2cc(Cl)ccc21"
measvalue = 0.35

[[record]]
smilesrepresentation = "Clc1cccc2[nH]c(-c3cscn3)nc12"
measvalue = 15

[[record]]
smilesrepresentation = "N#Cc1ccc(Cn2c(-c3cscn3)nc3c(Cl)cccc32)cc1"
measvalue = 4.47


Enter recorded Inhibition with Candida albicans for Clc1ccc2nc(-c3cscn3)n(Cc3ccccc3)c2c1 here.
0.38

---

Tested on: Cryptococcus neoformans
Conditions: Concentration 32 ug.mL-1; ASSAY_TEST Inhibition of Fungal Growth; detection method Resazurin; Absorption (OD600-OD570); plate type 384well; NBS; CORNING #3640
Description: Antifungal activity against Cryptococcus neoformans H99 ATCC 208821 (CO-ADD:FG_002); MIC in YNB media using NBS plates, by Resazurin OD(600-570)
Measured potencies and affinities stand elsewhere.
experimentalReadout: Inhibition (%)
One number for each entry, in %.

Worked cases, answers included:
[[record]]
smilesrepresentation = "Cn1c(-c2cscn2)nc2c(Cl)cccc21"
valueunits = "%"
measvalue = -43.05

[[record]]
smilesrepresentation = "CC(C)c1ccc(Cn2c(-c3cscn3)nc3c(Cl)cccc32)cc1"
valueunits = "%"
measvalue = -5.86

[[record]]
smilesrepresentation = "N#Cc1ccccc1-c1ccc(Cn2c(-c3cscn3)nc3c(Cl)cccc32)cc1"
valueunits = "%"
measvalue = -8.16


Report Inhibition for every entry below.
1. Nc1nc(Nc2ccc(Cl)cc2)sc1-c1nc2ccccc2c(=O)n1-c1ccccc1
2. CCc1ccc(Nc2nc(N)c(-c3nc4ccccc4c(=O)n3-c3ccccc3)s2)cc1
3. CCc1ccc(Nc2nc(N)c(-c3nc4ccccc4c(=O)n3-c3ccc(CC)cc3)s2)cc1
4. Clc1cccc2[nH]c(-c3cscn3)nc12
5. Clc1cccc2c1nc(-c1cscn1)n2Cc1ccccc1
6. Clc1ccc2c(c1)nc(-c1cscn1)n2Cc1ccccc1

1: -54.18; 2: -53.41; 3: -48.5; 4: -19.67; 5: -32.31; 6: -24.56

---

System: Klebsiella pneumoniae
Conditions: Concentration 32 ug.mL-1; ASSAY_TEST Inhibition of Bacterial Growth; detection method Absorption (OD600); MEDIA CAMHB; plate type 384well; NBS; CORNING #3640; time 18 hr
Description: Antibacterial activity against Klebsiella pneumoniae MDR ATCC 70063 (CO-ADD:GN_003); MIC in CAMBH media using NBS plates, by OD(600)
Results with a measured potency or affinity are listed apart.
experimentalReadout: Inhibition (%)
Answers are plain numbers, in %.

[[record]]
smilesrepresentation = "Clc1cccc2[nH]c(-c3cscn3)nc12"
measvalue = 5.98


Report Inhibition for every entry below.
1. N#Cc1ccccc1-c1ccc(Cn2c(-c3cscn3)nc3ccccc32)cc1
2. Clc1ccc2nc(-c3cscn3)n(Cc3ccccc3)c2c1
3. N#Cc1ccccc1-c1ccc(Cn2c(-c3cscn3)nc3ccc(Cl)cc32)cc1
4. CCc1ccc(-n2c(-c3sc(Nc4ccccc4)nc3N)nc3ccccc3c2=O)cc1
5. CCc1ccc(Nc2nc(N)c(-c3nc4ccccc4c(=O)n3-c3ccc(CC)cc3)s2)cc1

1. 13.6
2. 10.47
3. 6.08
4. -7.9
5. 12.46

Report Inhibition for every entry below.
1. N#Cc1ccccc1-c1ccc(Cn2c(-c3cscn3)nc3cc(Cl)ccc32)cc1
2. Clc1cccc2c1nc(-c1cscn1)n2Cc1ccccc1

1. 8
2. 10.03

Report Inhibition for every entry below.
1. N#Cc1ccccc1-c1ccc(Cn2c(-c3cscn3)nc3c(Cl)cccc32)cc1
2. CCc1ccc(Nc2nc(N)c(-c3nc4ccccc4c(=O)n3-c3ccc(Cl)cc3)s2)cc1

-3.22
12.28

Report Inhibition for every entry below.
1. N=C(Nc1ccccc1)c1cscn1
2. Nc1nc(Nc2ccccc2)sc1-c1nc2ccccc2c(=O)n1-c1ccccc1

-2.19
11.02

Identify the reported Inhibition for the following entry. Cn1c(-c2cscn2)nc2cc(Cl)ccc21
8.32
